The reported measurements were obtained from the supplement of paper PMC10065799.

measured.on: MERTK (UniProt Q12866)
Sequence (Q12866 whole entry, looked up): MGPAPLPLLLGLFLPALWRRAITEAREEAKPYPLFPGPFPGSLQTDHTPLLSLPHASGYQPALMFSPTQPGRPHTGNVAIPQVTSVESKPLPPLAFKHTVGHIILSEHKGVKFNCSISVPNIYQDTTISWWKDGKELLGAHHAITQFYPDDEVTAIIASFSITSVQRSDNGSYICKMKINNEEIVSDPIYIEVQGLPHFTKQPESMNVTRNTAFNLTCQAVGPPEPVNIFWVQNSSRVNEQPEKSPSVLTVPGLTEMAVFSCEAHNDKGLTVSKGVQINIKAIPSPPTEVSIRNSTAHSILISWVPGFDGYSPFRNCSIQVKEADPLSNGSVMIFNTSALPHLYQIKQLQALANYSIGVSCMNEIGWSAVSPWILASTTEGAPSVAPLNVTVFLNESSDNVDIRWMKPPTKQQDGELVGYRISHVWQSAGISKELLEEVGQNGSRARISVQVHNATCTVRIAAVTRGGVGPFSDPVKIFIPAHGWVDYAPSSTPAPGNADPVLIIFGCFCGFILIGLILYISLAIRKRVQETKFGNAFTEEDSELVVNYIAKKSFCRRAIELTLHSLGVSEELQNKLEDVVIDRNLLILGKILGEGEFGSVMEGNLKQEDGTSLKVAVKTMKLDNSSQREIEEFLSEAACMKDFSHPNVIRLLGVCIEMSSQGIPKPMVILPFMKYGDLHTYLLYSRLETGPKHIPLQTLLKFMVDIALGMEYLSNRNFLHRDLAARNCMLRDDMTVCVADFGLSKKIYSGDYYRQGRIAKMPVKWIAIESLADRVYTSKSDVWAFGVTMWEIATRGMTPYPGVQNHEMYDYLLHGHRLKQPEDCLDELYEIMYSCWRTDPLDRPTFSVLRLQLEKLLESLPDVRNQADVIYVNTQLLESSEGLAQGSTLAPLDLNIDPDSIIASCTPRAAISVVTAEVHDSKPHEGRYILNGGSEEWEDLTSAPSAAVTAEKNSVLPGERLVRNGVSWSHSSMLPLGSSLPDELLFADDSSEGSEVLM
protocol.details: phosphorylation enrichment, bacterial display (enrichment ratio); higher = better substrate or ligand; peptides without Tyr show the background;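 note: 11-residue human phosphosite peptides and single-mutation variants displayed on the E. coli surface, counted by deep sequencing, each peptide's frequency after selection divided by its frequency in the unselected input library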;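 note: frequency after pTyr selection over input frequency; kinase dosed for 20-30% of maximal phosphorylation in three min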
Recorded phosphorylation enrichment split into classes range A: < 0.4; range B: ≥ 0.4 and < 0.5; range C: ≥ 0.5

Band of ARVANYQRDGP [CAT_Y386] ? range C

Form: Item = PLQKTYNYNML [SLC4A1_Y553_V557M] ; Class = ? range C

Field: class (phosphorylation enrichment) — entry: TALFIYIRPKA [OR10C1_Y258] range A

Which class does SLALFYRKVFH [RBL1_Y792_YF] fall in? range A

Which of the defined bands does the recorded phosphorylation enrichment of FMCKVYSDRQP [FGFR1_Y280_P283R] sit within? range B

// return the class label for MSNSAYVKREV [SCN1A_Y1694_F1692S] range A

Exam item: assign MMVGAYSTLEG [ECPAS_Y470] to the correct category. range C

Kindly identify the class of TFQFKYPEGSS [TGM4_Y440_E437Q_YF] . range B

Category of RLLVVYPSTQR [HBB_Y36_W38S] , please. range C

Hi there! Could you help me figure out the category for NDFGNYNQQPS [HNRNPA2B1_Y306] please? range B

For KCLAVYQAGAR [APOE_Y180_R176C] , which phosphorylation enrichment bin applies? range B

Please let me know in which category the item KILGTYYETGS [PAX2_Y72_R71T] belongs. range C

====

measured.on: FGFR1 (UniProt P11362)
Sequence (P11362 whole entry, looked up): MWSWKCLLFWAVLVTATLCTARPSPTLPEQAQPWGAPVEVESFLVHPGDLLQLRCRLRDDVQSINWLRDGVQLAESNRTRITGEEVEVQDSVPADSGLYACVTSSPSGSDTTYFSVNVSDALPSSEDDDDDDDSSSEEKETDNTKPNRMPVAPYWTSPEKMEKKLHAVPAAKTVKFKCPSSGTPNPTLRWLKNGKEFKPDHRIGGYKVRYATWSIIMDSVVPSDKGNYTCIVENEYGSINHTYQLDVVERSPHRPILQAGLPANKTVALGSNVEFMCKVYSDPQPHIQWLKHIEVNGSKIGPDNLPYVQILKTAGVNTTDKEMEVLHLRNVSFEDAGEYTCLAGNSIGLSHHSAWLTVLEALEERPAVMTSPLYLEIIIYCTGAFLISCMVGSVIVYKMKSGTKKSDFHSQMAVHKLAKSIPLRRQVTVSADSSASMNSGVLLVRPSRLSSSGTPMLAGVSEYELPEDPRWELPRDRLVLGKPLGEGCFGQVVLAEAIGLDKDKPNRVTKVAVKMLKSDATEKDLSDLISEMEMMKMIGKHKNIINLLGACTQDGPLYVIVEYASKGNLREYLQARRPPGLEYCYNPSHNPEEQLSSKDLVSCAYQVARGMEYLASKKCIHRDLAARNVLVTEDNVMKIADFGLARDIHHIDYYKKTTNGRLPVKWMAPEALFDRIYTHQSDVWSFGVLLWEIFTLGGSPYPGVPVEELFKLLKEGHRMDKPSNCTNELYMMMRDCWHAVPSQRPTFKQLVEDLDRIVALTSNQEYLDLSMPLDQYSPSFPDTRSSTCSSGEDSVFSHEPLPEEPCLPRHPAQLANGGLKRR
protocol.details: phosphorylation enrichment, bacterial display (enrichment ratio); higher = better substrate or ligand; peptides without Tyr show the background
property.label: phosphorylation enrichment
// no unit, no text: just the number

Provide the documented phosphorylation enrichment with FGFR1 (UniProt P11362) as the system for KLADMYGGGED [CDH1_Y876] 0.561

Provide the documented phosphorylation enrichment with FGFR1 (UniProt P11362) as the system for LLVVLYKFRCF [PSEN1_Y154_Y159F_YF] 0.568

Param readout= phosphorylation enrichment; system= FGFR1 (UniProt P11362); entry= EATKGYLDDPT [G6PD_Y322] ; returns value. 0.412

Lab note: need phosphorylation enrichment for EILLSDLRTGF [TGM1_Y365_Y365D_YF] on FGFR1 (UniProt P11362), anyone have it? 0.487

Record lookup: for FGFR1 (UniProt P11362), what phosphorylation enrichment belongs to GGGMIYPLDLF ? 0.503

// fetch FGFR1 (UniProt P11362) phosphorylation enrichment for SWSTSYSGYRY [NKAPL_Y91] 0.707

State its phosphorylation enrichment on FGFR1 (UniProt P11362): FVFSFYHAFSG [ACTN4_Y265_S262F_YF] 0.492

Field: phosphorylation enrichment (FGFR1 (UniProt P11362)). Entry: ATARPYRPFII [LRP5_Y1528_YF] 0.402

// fetch FGFR1 (UniProt P11362) phosphorylation enrichment for EVEPTYVVLYD [ERCC4_Y577_R576T] 5.87

Param readout = phosphorylation enrichment; param system = FGFR1 (UniProt P11362); param query = LSEEKYELKEG [TREM1_Y29_T25S] ; response: value 0.592

Field: phosphorylation enrichment (FGFR1 (UniProt P11362)). Entry: RMDGTYACSYT [FLNB_Y704] 0.538

Which phosphorylation enrichment is reported with FGFR1 (UniProt P11362) for this entry: ALADKYHGGGG [HBB_Y146_H144D] ? 0.396

FGFR1 (UniProt P11362) / phosphorylation enrichment / KMMGRYEMFAR [UPB1_Y362_T359M_YF] : value? 0.363

Checklist item: phosphorylation enrichment tested on FGFR1 (UniProt P11362), entry FVSIVYNDSGE [TSC2_Y1650] , value? 0.559

Give phosphorylation enrichment (FGFR1 (UniProt P11362)) of the following sequence: TVLGEYALPKG [CYP24A1_Y407] 0.45

Missing value: phosphorylation enrichment, FGFR1 (UniProt P11362), entry QRRLVYFERGA [RYR1_Y245_G248R_YF] . Fill in? 0.918

Please state recorded phosphorylation enrichment (tested on FGFR1 (UniProt P11362)) of LKLIQYHLTQQ [AKAP4_Y554] 0.932

Request - read-out phosphorylation enrichment | tested on FGFR1 (UniProt P11362) | sequence EVRAQYEEIAQ [KRT76_Y361] 0.611

GET /values?readout=phosphorylation enrichment&system=FGFR1 (UniProt P11362)&item= RPGSGYTKIMR [PKLR_Y564_N566K] 0.372

Item LSNPAYCLLLA [DDR1_Y513_R514C] with FGFR1 (UniProt P11362) - phosphorylation enrichment? 6.78

Tell me reported phosphorylation enrichment for IRKKYYRAILE [CHD7_Y1218_Q1214R] , tested with FGFR1 (UniProt P11362). 0.423

Lookup: phosphorylation enrichment / FGFR1 (UniProt P11362) / TLQRMYGCDVG [HLA-B_Y123_S121R] 0.5

Param readout= phosphorylation enrichment; system= FGFR1 (UniProt P11362); entry= TLMNAYSSCSH [KIF11_Y231_R234C] ; returns value. 0.436

Short answer please: phosphorylation enrichment, FGFR1 (UniProt P11362), entry GRQWNYVASML [KLHL4_Y552_S557L] 0.382

Hi! What's the reported phosphorylation enrichment for GYEEAYSVSKK [PAFAH1B1_Y28_F31S] on FGFR1 (UniProt P11362)? 0.364

Observed phosphorylation enrichment on FGFR1 (UniProt P11362) for ADFPDYKFRPR [SOX11_Y116_YF] , please. 0.455

// lookup phosphorylation enrichment | system=FGFR1 (UniProt P11362) | key= LITLVYGCSRQ [TMPRSS6_Y290_S288L] 0.599

# get_value(readout= phosphorylation enrichment, system= FGFR1 (UniProt P11362)) for CEHRGFLFLAI [TEK_Y897_Y897F_YF] 0.484

I'm curious: which phosphorylation enrichment was measured for IEKLTYIDKWF [CPS1_Y872] tested on FGFR1 (UniProt P11362)? 0.638
